Tested on: WT-BaF3 cells
measurement_description: Cell antiproliferative activity assay (CCK-8), WT-BaF3 (broad-spectrum cytotoxicity)
Assay type: cell-based
particulars: 72 h; WT-BaF3 cells (IL-3 supplemented), CCK-8, 3 days incubation
pIC50: −log10 of the molar value.
recorded_metric: pIC50

> print(dat)
                              sample.smiles  measured.result
1  Cc1nn(CCCO)cc1Nc1ncc2cc(-c3c(C)ncnc3C)cc(C(C)C)c2n1           < 5.60
2  COc1c(P(C)(C)=O)ccc(Nc2ncc3cc(-c4nccnc4C)cc(C4CC4)c3n2)c1F           < 5.60
3  CC(C)c1cc(-c2cccnc2)cc2cnc(Nc3cn(CCO)nc3Cl)nc12     5.60 to 6.30
4  Cc1nn(CCO)cc1Nc1ncc2cc(-c3cncnc3C)cc(C(F)(F)F)c2n1           < 5.60
5  Cc1nn(CCO)cc1Nc1ncc2cc(-c3cncc(N)n3)cc(C(C)C)c2n1           < 5.60

###

Examples of compounds with documented pIC50 follow.
Tested on: WT-BaF3 cells
measurement_description: Cell antiproliferative activity assay (CCK-8), WT-BaF3 (broad-spectrum cytotoxicity)
Format: cell-based
particulars: 72 h; WT-BaF3 cells (IL-3 supplemented), CCK-8, 3 days incubation
pIC50: −log10 of the molar value.
recorded_metric: pIC50

> print(dat)
                                   compound  recorded.metric  measured.result
1  Cc1nn(CCO)cc1Nc1ncc2cc(-c3ccccn3)cc(C(C)C)c2n1 [I-1]            pIC50     5.60 to 6.30
2  Cc1ncc(F)cc1-c1cc(C(C)C)c2nc(Nc3cnn(CCO)c3)ncc2c1 [I-52]            pIC50           < 5.60
3  Cc1nn(CCO)cc1Nc1ncc2cc(-c3cccnc3)cc(C(C)C)c2n1 [I-21]            pIC50           < 5.60
4  COc1cc(Nc2ncc3cc(-c4nccnc4C)cc(C(C)C)c3n2)cnc1P(C)(C)=O [II-7]            pIC50     5.60 to 6.30

###

Recorded pIC50 values for a group of compounds are listed next.
Tested on: T47D cells
measurement_description: Cell antiproliferative activity assay (CCK-8), T47D
Type: cell-based
particulars: Homo sapiens, 72 h, breast cancer cell line T47D, incubation for 3 days
pIC50: −log10 of the molar value.
recorded_metric: pIC50

> print(dat)
                              sample.smiles  recorded.metric  measured.result
1  CC(C)c1cc(-c2cccnc2)cc2cnc(Nc3cn(CCO)nc3C(F)F)nc12            pIC50     6.00 to 6.30
2  Cc1nn(CCO)cc1Nc1ncc2cc(-c3c(F)ccnc3N)cc(C(C)C)c2n1            pIC50     6.00 to 6.30
3  CCP(=O)(CC)c1ccc(Nc2ncc3cc(-c4nccnc4C)cc(C4CC4)c3n2)cc1OC            pIC50           ≥ 6.30
4  Cc1ccc(C#N)cc1-c1cc(C(C)C)c2nc(Nc3cn(C)nc3C)ncc2c1            pIC50           ≥ 6.30
5  COc1cc(Nc2ncc3cc(-c4nccnc4C)cc(C4CC4)c3n2)c(F)cc1P(C)(C)=O            pIC50           ≥ 6.30
6  Cc1nccnc1-c1cc(C2CC2)c2nc(Nc3cnn(CC(=O)N(C)C)c3)ncc2c1            pIC50           ≥ 6.30
7  Cc1nccnc1-c1cc(C(C)C)c2nc(Nc3cn(CCO)nc3Cl)ncc2c1            pIC50     6.00 to 6.30
8  Cc1nccnc1-c1cc(C(C)C)c2nc(Nc3ccc(P(C)(C)=O)cc3F)ncc2c1            pIC50     6.00 to 6.30
9  Cc1nn(CCO)cc1Nc1ncc2cc(-c3cncc(F)c3C)cc(C(C)C)c2n1            pIC50           ≥ 6.30

###

Measured pIC50, listed per entry for reference.
Tested on: GA6208
measurement_description: In vitro activity test of gastric cancer PDX (CellTiter-Glo), GA6208
Format: cell-based
particulars: PDX GA6208, gastric cancer with high BRK expression, 168 hours
pIC50: −log10 of the molar value.
recorded_metric: pIC50

> print(dat)
                                   molecule  measured.result
1  Cc1nn(CCO)cc1Nc1ncc2cc(-c3nccnc3C)cc(C(C)C)c2n1             5.41
2  COc1c(P(C)(C)=O)ccc(Nc2ncc3cc(-c4nccnc4C)cc(C4CC4)c3n2)c1F             5.25
3  N.N.[Cl][Pt][Cl] [cisplatin, reference compound]             6.53
4  Cc1nn(CCO)cc1Nc1ncc2cc(-c3cccnc3)cc(C(C)C)c2n1             6.21
5  Cc1nn(CCO)cc1Nc1ncc2cc(-c3nccnc3C)cc(C(F)(F)F)c2n1             5.07

###

System: WT-BaF3 cells
measurement_description: Cell antiproliferative activity assay (CCK-8), WT-BaF3 (broad-spectrum cytotoxicity)
Format: cell-based
particulars: 72 h; WT-BaF3 cells (IL-3 supplemented), CCK-8, 3 days incubation
pIC50: −log10 of the molar value.
recorded_metric: pIC50

> print(dat)
                                    compound  experimental.target  recorded.metric  measured.result
 1  Cc1ncnc(C)c1-c1cc(C(C)C)c2nc(Nc3cn(CCO)nc3Cl)ncc2c1 [I-143]        WT-BaF3 cells            pIC50           < 5.60
 2  Cc1ncccc1-c1cc(C(C)C)c2nc(Nc3cnn(CCO)c3C)ncc2c1 [I-66]        WT-BaF3 cells            pIC50     5.60 to 6.30
 3  Cc1c[nH]c(=O)cc1-c1cc(C(C)C)c2nc(Nc3cnn(C4COC4)c3C)ncc2c1 [III-41]        WT-BaF3 cells            pIC50           < 5.60
 4  Cc1nn(CCO)cc1Nc1ncc2cc(-c3cncnc3)cc(C(F)(F)F)c2n1 [I-151]        WT-BaF3 cells            pIC50           < 5.60
 5  Cc1cc(Nc2ncc3cc(-c4nccnc4C)cc(C(C)C)c3n2)ncc1P(C)(C)=O [II-9]        WT-BaF3 cells            pIC50           < 5.60
 6  Cc1nccnc1-c1cc(C(C)C)c2nc(Nc3ccc(P(C)(C)=O)c(C)c3F)ncc2c1 [II-18]        WT-BaF3 cells            pIC50           < 5.60
 7  Cc1nn(CCO)cc1Nc1ncc2cc(-c3cccnc3)cc(C3CC3)c2n1 [I-72]        WT-BaF3 cells            pIC50     6.30 to 7.00
 8  Cc1nn(CCN)cc1Nc1ncc2cc(-c3nccnc3C)cc(C(C)C)c2n1 [III-108]        WT-BaF3 cells            pIC50     6.30 to 7.00
 9  Cc1nn(CCO)cc1Nc1ncc2cc(-c3ccncc3F)cc(C(C)C)c2n1 [I-11]        WT-BaF3 cells            pIC50     5.60 to 6.30
10  Cc1nn(CCO)cc1Nc1ncc2cc(-c3c(C)ncnc3Cl)cc(C(C)C)c2n1 [I-127]        WT-BaF3 cells            pIC50           < 5.60
11  Cc1nccnc1-c1cc(C(C)C)c2nc(Nc3ccc(P(C)(C)=O)nc3)ncc2c1 [II-3]        WT-BaF3 cells            pIC50           < 5.60
12  Cc1nn(CCO)cc1Nc1ncc2cc(-c3cc(F)cnc3C)cc(C(C)C)c2n1 [I-41]        WT-BaF3 cells            pIC50           < 5.60
13  Cc1cnccc1-c1cc(C(C)C)c2nc(Nc3cn(CCO)nc3C)ncc2c1 [I-12]        WT-BaF3 cells            pIC50     5.60 to 6.30
14  Cc1nccnc1-c1cc(C(C)C)c2nc(Nc3cn(CCO)nc3C(F)F)ncc2c1 [I-99]        WT-BaF3 cells            pIC50     5.60 to 6.30
15  Cc1nn(CCCO)cc1Nc1ncc2cc(-c3cccnc3)cc(C(C)C)c2n1 [I-53]        WT-BaF3 cells            pIC50     5.60 to 6.30
16  COc1ccncc1-c1cc(C(C)C)c2nc(Nc3cn(CCO)nc3C)ncc2c1 [I-33]        WT-BaF3 cells            pIC50           < 5.60
17  Cc1nn(CCO)cc1Nc1ncc2cc(-c3cc(O)ccc3F)cc(C(C)C)c2n1 [I-160]        WT-BaF3 cells            pIC50     6.30 to 7.00
18  Cc1nn(CCO)cc1Nc1ncc2cc(-c3c(C)ncnc3N)cc(C(C)C)c2n1 [I-129]        WT-BaF3 cells            pIC50           < 5.60
19  COc1cc(P(C)(C)=O)ncc1Nc1ncc2cc(-c3c(C)ncnc3C)cc(C(C)C)c2n1 [II-44]        WT-BaF3 cells            pIC50           < 5.60

Taken from patent EP4803513A1.
